meta.source: PubChem BioAssay (NCI)

Parameter: growth. Scope: all listed entries.
Tested on: SF-295 CNS
test: NCI-60 one-dose screen, 48 h (100 = growth as untreated, 0 = no growth, -100 = all killed)
statedConditions: 10 µM unless noted
Compounds without any hit were thinned out: in the full panel of roughly 83,000, 20% have a hit. The source made the active and inactive calls. The calls were made as follows: active = growth percent below 10; inactive = the rest.

molecule COC(=O)[C@H]1CCCN1C(=O)C1CCCN1C(=O)[C@@H](Cc1ccccc1)NC(=S)Nc1cc(C(F)(F)F)cc(C(F)(F)F)c1 (stereo partly specified) , growth observed: 89.4% (inactive)

Lookup result for "c1ccc(NCc2ccc3c(c2)OCO3)cc1" ; measured growth: 105% (inactive)
